test summary: Pepsin stability assay in simulated gastric fluid
Type: in vitro ADME
test context: pH 1.2, % Intact (SD)
Starred links: 1 amine or outer side, 2 acyl side, 3 side chain; linkers in the order of their positions; H or OH if unused. Non-standard residues stand in square brackets, D forms with d. Groups on a side chain read outwards from the residue. *: point of attachment. C18 diacid = O=C(O)CCCCCCCCCCCCCCCCC(=O)*; αMePhe(2-F) = C[C@](N)(Cc1ccccc1F)C(=O)O; γGlu = O=C(O)[C@H](CCC(=O)[*:2])N[*:1]; αMe4Pal = C[C@](N)(Cc1ccncc1)C(=O)O; αMeY = C[C@](N)(Cc1ccc(O)cc1)C(=O)O; 4Pal = N[C@@H](Cc1ccncc1)C(=O)O; αMeL = CC(C)C[C@](C)(N)C(=O)O; αMeS = C[C@](N)(CO)C(=O)O; Orn = NCCC[C@H](N)C(=O)O; AEEA = NCCOCCOCC(=O)O; Aib = CC(C)(N)C(=O)O
Below is a list of entries, each paired with its recorded remaining at 0.5 h, 0.4 mg/mL value.
Please don't drop the unit; write it after the number.

# substance, measure, measurement
records = [
    ("H-Y[Aib]QGT[αMePhe(2-F)]TSD[4Pal][αMeS]I[αMeL]LD[Orn]K([AEEA-γGlu-C18 diacid])AQ[αMe4Pal]EFI[dE][αMeY]LIEGGPSSGEPPPSGGGE-NH2 [Example 742]", "remaining at 0.5 h, 0.4 mg/mL", "113%"),
    ("H-Y[Aib]QGTFTSD[4Pal]SQ[αMeL]LD[Orn]K([dE-γGlu-C18 diacid])AQ[αMe4Pal]EFI[dE][αMeY]LIAGGPSSGAPPPSGSEEE-NH2 [Example 1235]", "remaining at 0.5 h, 0.4 mg/mL", "0%"),
    ("H-Y[Aib]QGT[αMePhe(2-F)]TSD[4Pal][αMeS]I[αMeL]LD[Orn]K([γGlu-γGlu-C18 diacid])AQ[αMe4Pal]EFI[dE][αMeY]LIEGGPSSGAPPPSGTGE-NH2 [Example 718]", "remaining at 0.5 h, 0.4 mg/mL", "101%"),
    ("H-Y[Aib]QGT[αMePhe(2-F)]TSD[4Pal]SI[αMeL]LD[Orn]K([AEEA-γGlu-C18 diacid])AQ[αMe4Pal][Orn]FI[dE]YLIEGGPSSGEPPPEGT-NH2 [Example 500]", "remaining at 0.5 h, 0.4 mg/mL", "1%"),
    ("H-Y[Aib]QGT[αMePhe(2-F)]TSD[4Pal][αMeS]I[αMeL]LD[Orn]K([AEEA-γGlu-C18 diacid])AQ[αMe4Pal]EFI[dE][αMeY]LIEGGPSSGEPPPSGTGE-NH2 [Example 711]", "remaining at 0.5 h, 0.4 mg/mL", "91.6%"),
    ("H-Y[Aib]QGT[αMePhe(2-F)]TSD[4Pal][αMeS]I[αMeL]LD[Orn]K([γGlu-γGlu-C18 diacid])AQ[αMe4Pal]EFI[dE][αMeY]LVEGGPSSGAPPPSGS-NH2 [Example 696]", "remaining at 0.5 h, 0.4 mg/mL", "107%"),
    ("H-Y[Aib]QGT[αMePhe(2-F)]TSD[4Pal]SI[αMeL]LD[Orn]K([AEEA-γGlu-C18 diacid])AQ[αMe4Pal][Orn]FIE[αMeY]LIEGGPSSGEPPPEGT-NH2 [Example 505]", "remaining at 0.5 h, 0.4 mg/mL", "78.9%"),
    ("H-Y[Aib]QGT[αMePhe(2-F)]TSD[4Pal][αMeS]I[αMeL]LD[Orn]K([AEEA-γGlu-C18 diacid])AQ[αMe4Pal]EFI[dE][αMeY]LIEGGPSSGAPPPSGSE-NH2 [Example 712]", "remaining at 0.5 h, 0.4 mg/mL", "91.4%"),
    ("H-Y[Aib]QGT[αMePhe(2-F)]TSD[4Pal][αMeS]I[αMeL]LD[Orn]K([AEEA-γGlu-C18 diacid])AQ[αMe4Pal]EFI[dE][αMeY]LIEGGPSSGAPPPSGTGE-NH2 [Example 714]", "remaining at 0.5 h, 0.4 mg/mL", "102%"),
    ("H-Y[Aib]QGT[αMePhe(2-F)]TSD[4Pal][αMeS]I[αMeL]LD[Orn]K([AEEA-γGlu-C18 diacid])AQ[αMe4Pal]EFI[dE][αMeY]LVEGGPSSGEPPPSGS-NH2 [Example 733]", "remaining at 0.5 h, 0.4 mg/mL", "107%"),
]

Next:
Dear colleague, I am looking for the recorded remaining at 0.5 h, 0.4 mg/mL of the following substance: H-Y[Aib]QGT[αMePhe(2-F)]TSD[4Pal][αMeS]I[αMeL]LD[Orn]K([AEEA-γGlu-C18 diacid])AQ[αMe4Pal]EFI[dE][αMeY]LIEGGPSSGAPPPSGGGE-NH2 [Example 741]
104%
